# Tested on: SW1710 (Bladder Carcinoma);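 also: after 72 h of two-drug dosing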
# Test protocol: Bliss excess, mean over the matrix (fraction); higher = more synergy
Kind request: treat -0.008 as inclusive, so Bliss excess at -0.008 or higher is Condition met, anything lower is Condition not met.

Molecule | System | Label class
C[C@@H](Oc1cc(-c2cnn(C3CCNCC3)c2)cnc1N)c1c(Cl)ccc(F)c1Cl [Crizotinib] + Cn1cnc2c(F)c(Nc3ccc(Br)cc3Cl)c(C(=O)NOCCO)cc21 [Selumetinib] (first compound max 10 µM, 7x7, partner max 10 µM) | SW1710 (Bladder Carcinoma) | Condition not met
NC1(C(=O)N[C@@H](CCO)c2ccc(Cl)cc2)CCN(c2ncnc3[nH]ccc23)CC1 [Capivasertib] + CC(C)n1c(=O)n(C)c2cnc3cc(F)c(-c4ccc(OCCCN5CCCCC5)nc4)cc3c21 [AZD1390] (first compound max 10 µM, 7x7, partner max 0.3 µM) | SW1710 (Bladder Carcinoma) | Condition not met
COc1cccc(OCCCN)c1-c1cc(Nc2cnc(C#N)cn2)n[nH]1 [Prexasertib] + Cc1cc2ncnn2cc1Nc1ncc2c(n1)n(C1CCOCC1)c(=O)n2C [AZD7648] (first compound max 1 µM, 7x7, partner max 10 µM) | SW1710 (Bladder Carcinoma) | Condition not met
C=CCn1c(=O)c2cnc(Nc3ccc(N4CCN(C)CC4)cc3)nc2n1-c1cccc(C(C)(C)O)n1 [AZD1775] + CCc1c2c(nc3ccc(O)cc13)-c1cc3c(c(=O)n1C2)COC(=O)[C@]3(O)CC [SN-38] (first compound max 1 µM, partner max 0.3 µM) | SW1710 (Bladder Carcinoma) | Condition met
NC1(C(=O)N[C@@H](CCO)c2ccc(Cl)cc2)CCN(c2ncnc3[nH]ccc23)CC1 [Capivasertib] + C[C@@H]1COCCN1C2=NC(=NC(=C2)C3(CC3)[S@](=N)(=O)C)C4=C5C=CNC5=NC=C4 [AZD6738] (first compound max 10 µM, 7x7, partner max 10 µM) | SW1710 (Bladder Carcinoma) | Condition not met
CN(CCO)CC[C@H](CSc1ccccc1)Nc1ccc(S(=O)(=O)NC(=O)c2ccc(N3CCC([C@@H](O)c4ccccc4-c4ccc(Cl)cc4)CC3)cc2)cc1S(=O)(=O)C(F)(F)F [AZD4320] + C=CCn1c(=O)c2cnc(Nc3ccc(N4CCN(C)CC4)cc3)nc2n1-c1cccc(C(C)(C)O)n1 [AZD1775] (first compound max 1 µM, partner max 1 µM) | SW1710 (Bladder Carcinoma) | Condition met
CC1(C)CCC(CN2CCN(c3ccc(C(=O)NS(=O)(=O)c4ccc(NCC5CCOCC5)c([N+](=O)[O-])c4)c(Oc4cnc5[nH]ccc5c4)c3)CC2)=C(c2ccc(Cl)cc2)C1 [Venetoclax] + COc1cc(Nc2ncc3c(n2)-c2ccc(Cl)cc2C(c2c(F)cccc2OC)=NC3)ccc1C(=O)O [Alisertib] (first compound max 1 µM, 7x7, partner max 10 µM) | SW1710 (Bladder Carcinoma) | Condition not met
CC1(C)CCC(CN2CCN(c3ccc(C(=O)NS(=O)(=O)c4ccc(NCC5CCOCC5)c([N+](=O)[O-])c4)c(Oc4cnc5[nH]ccc5c4)c3)CC2)=C(c2ccc(Cl)cc2)C1 [Venetoclax] + CCN(CCO)CCCOc1ccc2c(Nc3cc(CC(=O)Nc4cccc(F)c4)[nH]n3)ncnc2c1 [AZD2811] (first compound max 1 µM, 7x7, partner max 1 µM) | SW1710 (Bladder Carcinoma) | Condition met
CS(=O)(=O)CCNCc1ccc(-c2ccc3ncnc(Nc4ccc(OCc5cccc(F)c5)c(Cl)c4)c3c2)o1 [Lapatinib] + Cn1cnc2c(F)c(Nc3ccc(Br)cc3Cl)c(C(=O)NOCCO)cc21 [Selumetinib] (first compound max 10 µM, 7x7, partner max 10 µM) | SW1710 (Bladder Carcinoma) | Condition met
N#Cc1cnc(Nc2cc(NC[C@H]3CNCCO3)c(C(F)(F)F)cn2)cn1 [SRA737] + O=c1[nH]cc(F)c(=O)[nH]1 [5-Fluorouracil] (first compound max 10 µM, 7x7, partner max 20 µM) | SW1710 (Bladder Carcinoma) | Condition not met

Field: next molecule
Determine whether this molecule has Bliss excess no lower than -0.008: CN(CCO)CC[C@H](CSc1ccccc1)Nc1ccc(S(=O)(=O)NC(=O)c2ccc(N3CCC([C@@H](O)c4ccccc4-c4ccc(Cl)cc4)CC3)cc2)cc1S(=O)(=O)C(F)(F)F [AZD4320] + CC(=O)O[C@H]1C(=O)[C@@]2(C)[C@H]([C@H](OC(=O)c3ccccc3)[C@]3(O)C[C@H](OC(=O)[C@H](O)[C@@H](NC(=O)c4ccccc4)c4ccccc4)C(C)=C1C3(C)C)[C@]1(OC(C)=O)CO[C@@H]1C[C@@H]2O [Paclitaxel] (first compound max 1 µM, 7x7, partner max 3 µM) Condition met
